Recorded measurements of IC50, one per entry
# target or system: JAK3 (Homo sapiens)
# Construct: The kinase domain of humanJAK3 was amplified from U937mRNA; His tag (from pFastBac HTb vector; nickel chelate purification) (N); made in house; host or cells: baculovirus; virus made in Sf9, large-scale expression in High Five insect cells
# Sequence (P52333 822-1111 limits assumed): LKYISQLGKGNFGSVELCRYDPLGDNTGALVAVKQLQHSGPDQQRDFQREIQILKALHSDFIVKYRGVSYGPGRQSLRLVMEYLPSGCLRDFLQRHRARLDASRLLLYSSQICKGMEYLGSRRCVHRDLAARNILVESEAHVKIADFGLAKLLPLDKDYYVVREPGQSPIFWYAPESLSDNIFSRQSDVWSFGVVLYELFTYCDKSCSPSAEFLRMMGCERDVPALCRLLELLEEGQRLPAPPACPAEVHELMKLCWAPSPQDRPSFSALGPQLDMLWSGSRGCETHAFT
# procedure summary: JAK3 kinase domain capture-based ELISA kinase assay
# Type: biochemical
# condition parameters: Table 6; inhibit 50% of activity at 50 μM
quantity kind: IC50

- compound: "Oc1cccc(-c2cn3ccnc3c(N3CCOCC3)n2)c1"
  reported: "> 50 µM"
- compound: "COc1cc(-c2cn3ccnc3c(Nc3ccccc3)n2)cc(OC)c1OC"
  reported: "> 50 µM"
- compound: "FC(F)(F)c1cc(-c2cn3ccnc3c(NCC3CCOCC3)n2)cc(C(F)(F)F)c1"
  reported: "> 50 µM"
- compound: "Cc1ccc(S(=O)(=O)Nc2ccc(Nc3nc(-c4cccc(C(=O)NCCN(C)C)c4)cn4ccnc34)cc2)cc1"
  reported: "> 50 µM"
- compound: "c1coc(-c2cn3ccnc3c(Nc3ccc(N4CCOCC4)cc3)n2)c1"
  reported: "> 50 µM"
- compound: "CCNc1nc(-c2ccc(N(C)C)cc2)cn2ccnc12"
  reported: "> 50 µM"
- compound: "Nc1cccc(-c2cn3ccnc3c(Nc3ccccc3)n2)c1 [drawing 87]"
  reported: "> 50 µM"
- compound: "Oc1cccc(-c2cn3ccnc3c(NC3CC3)n2)c1"
  reported: "> 50 µM"
- compound: "c1ccc(Nc2nc(-c3ccco3)cn3ccnc23)cc1"
  reported: "> 50 µM"
- compound: "Fc1ccc(-c2cn3ccnc3c(Nc3ccc4[nH]ccc4c3)n2)cc1Cl"
  reported: "> 50 µM"
- compound: "O=C(O)c1ccc(-c2cn3ccnc3c(Nc3ccc4cn[nH]c4c3)n2)cc1"
  reported: "> 50 µM"
- compound: "O=C(O)c1cccc(-c2cn3ccnc3c(Nc3ccc4cn[nH]c4c3)n2)c1"
  reported: "> 50 µM"
- compound: "Fc1ccccc1-c1cn2ccnc2c(NCCc2cccnc2)n1"
  reported: "< 50 µM"
- compound: "CCC(CO)Nc1nc(-c2ccco2)cn2ccnc12 (stereo not drawn)"
  reported: "< 50 µM"
- compound: "CC(=O)Nc1cccc(-c2cn3ccnc3c(Nc3ccccc3)n2)c1"
  reported: "< 50 µM"
- compound: "FC(F)C(F)(F)Oc1cccc(Nc2nc(-c3cc(C(F)(F)F)cc(C(F)(F)F)c3)cn3ccnc23)c1"
  reported: "> 50 µM"
- compound: "CCCC/C=C/c1cn2ccnc2c(Nc2ccc(OC)nc2)n1"
  reported: "> 50 µM"
- compound: "O=C(O)c1ccc(-c2cn3ccnc3c(Nc3ccc(Cl)cc3)n2)cc1"
  reported: "< 50 µM"

Source of measurements: patent US20060069084A1
